Measured MIC values are reported for all entries that follow.
Tested on: Proteus mirabilis
testDetails: antibacterial activity in vitro, dilution in liquid medium method (MIC/MBC)
Assay type: cell-based
experimentalConditions: 18 hours, 37° C., read-out: minimum inhibiting concentration (MIC)

Use these answered entries as a reference point.
The reported value for CCn1cc(C(=O)O)c(=O)c2c1ccc1cnn(C)c12 [I f] in terms of MIC is > 10 µg/mL

The reported value for CCn1cc(C(=O)O)c(=O)c2c3nn(C)cc3ccc21 [I g] in terms of MIC is > 100 µg/mL

The reported value for C=Cn1cc(C(=O)O)c(=O)c2c3[nH]ncc3ccc21 [I e'] in terms of MIC is > 10 µg/mL

The reported value for CCn1cc(C(=O)O)c(=O)c2c3[nH]ncc3ccc21 [I e] in terms of MIC is > 10 µg/mL

The reported value for CCn1cc(C(=O)O)c(=O)c2ccc3cnn(CC)c3c21 [I h] in terms of MIC is > 10 µg/mL

Switching to the query record.
The reported value for CCn1cc(C(=O)O)c(=O)c2c3cnn(Cc4ccccc4)c3ccc21 [I d] in terms of MIC is > 10 µg/mL

====

Test system: Staphylococcus aureus
testDetails: antibacterial activity in vitro, dilution in liquid medium method (MIC/MBC)
Format: cell-based
experimentalConditions: 18 hours, 37° C., read-out: minimum inhibiting concentration (MIC)
Measured MIC values are reported for all entries that follow.

Use these answered entries as a reference point.
The reported value for CCn1cc(C(=O)O)c(=O)c2c1ccc1cnn(C)c12 in terms of MIC is > 10 µg/mL

The reported value for CCn1cc(C(=O)O)c(=O)c2c3cn[nH]c3ccc21 in terms of MIC is > 10 µg/mL

Switching to the query record.
The reported value for CCn1cc(C(=O)O)c(=O)c2ccc3[nH]ncc3c21 in terms of MIC is > 100 µg/mL

====

Tested on: Proteus mirabilis
testDetails: antibacterial activity in vitro, dilution in liquid medium method (MIC/MBC)
Type: cell-based
experimentalConditions: 18 hours, 37° C., read-out: minimum inhibiting concentration (MIC)
Protocol: The nalidixic acid solution and the solutions containing compounds of the formula (I) were prepared in distilled water with addition of sodium hydroxide. The strains used are all obtained from the hospital where they were recently isolated from urinary infections (except Salmonella para B and Listeria which are obtained from a collection): Different dilutions of 24 hour cultures in physiological saline were used, depending on the respective growth rate of each germ: […]
propertyMeasured: MIC

Use these answered entries as a reference point.
The reported value for CCn1cc(C(=O)O)c(=O)c2c3cn[nH]c3ccc21 in terms of MIC is > 10 µg/mL

The reported value for CCn1cc(C(=O)O)c(=O)c2ccc3[nH]ncc3c21 in terms of MIC is > 100 µg/mL

Switching to the query record.
The reported value for CCn1cc(C(=O)O)c(=O)n2nc3ccccc3c12 in terms of MIC is > 100 µg/mL

====

System: Pseudomonas aeruginosa
testDetails: antibacterial activity in vitro, dilution in liquid medium method (MIC/MBC)
Type: cell-based
experimentalConditions: 18 hours, 37° C., read-out: minimum inhibiting concentration (MIC)
propertyMeasured: MIC

The reported value for CCn1cc(C(=O)O)c(=O)c2ccc3cnn(CC)c3c21 [I h] in terms of MIC is > 10 µg/mL

The reported value for C=Cn1cc(C(=O)O)c(=O)c2c3[nH]ncc3ccc21 [I e'] in terms of MIC is > 10 µg/mL

Next:
The reported value for CCn1cc(C(=O)O)c(=O)c2c3nn(C)cc3ccc21 [I g] in terms of MIC is > 100 µg/mL
